assay: coupled detection enzyme interference, dose response, artefact control for MgcRacGAP inhibitor project, biochemical, coupled enzyme counter-screen (AID 624351); details: ADP Hunter coupled enzyme counter-screen, fluorescence, no MgcRacGAP; series mostly up to 80 µM;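 also: signal is the ADP detection kit reading of free GDP without any GAP enzyme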
The whole screen tested about 2,400 compounds, of which about 1,400 (58%) were called active.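 The calls were made as follows: active = inhibition of 30% or more at any tested dose; inconclusive = primary hits over the limit that were never retested; inactive = the rest.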 So high a share suggests a set chosen from earlier hits. The list shows a part of the results.
Respond with a class label; see active, inactive

Example entries and their recorded answers appear below.
{"columns": ["molecule", "label value"],
 "data": [
  ["COc1ccc2nc(C)cc(SCC(=O)N/N=C/c3ccc(O)c(O)c3)c2c1", "active"],
  ["COc1ccc2nc(/N=C(\\N)NC(=O)N3c4ccccc4Sc4ccccc43)nc(C)c2c1", "inactive"],
  ["COc1ccc2c(c1)c(C(=O)N/N=C/c1ccc(O)c(O)c1)c(C)n2C", "active"],
  ["Cc1cccc(C)c1OCCCCN1CCNCC1", "inactive"],
  ["CCOC(=O)C1CCCN(C2=NC(=O)/C(=C/c3ccc(O)c(OCC)c3)S2)C1 (stereo unspecified)", "active"]
]}

Kindly review the next molecule as well.
Query block: Hello, I am checking results. What call was entered for COc1ccc(/C=N/Nc2cc(C)nc3ccc(OC)cc23)c(OC)c1 ?
Result block: inactive
